Measured values drawn from paper PMC12467033 for this set.

Target: α-amylase (Sus scrofa)
Sequence (P00690 16-511): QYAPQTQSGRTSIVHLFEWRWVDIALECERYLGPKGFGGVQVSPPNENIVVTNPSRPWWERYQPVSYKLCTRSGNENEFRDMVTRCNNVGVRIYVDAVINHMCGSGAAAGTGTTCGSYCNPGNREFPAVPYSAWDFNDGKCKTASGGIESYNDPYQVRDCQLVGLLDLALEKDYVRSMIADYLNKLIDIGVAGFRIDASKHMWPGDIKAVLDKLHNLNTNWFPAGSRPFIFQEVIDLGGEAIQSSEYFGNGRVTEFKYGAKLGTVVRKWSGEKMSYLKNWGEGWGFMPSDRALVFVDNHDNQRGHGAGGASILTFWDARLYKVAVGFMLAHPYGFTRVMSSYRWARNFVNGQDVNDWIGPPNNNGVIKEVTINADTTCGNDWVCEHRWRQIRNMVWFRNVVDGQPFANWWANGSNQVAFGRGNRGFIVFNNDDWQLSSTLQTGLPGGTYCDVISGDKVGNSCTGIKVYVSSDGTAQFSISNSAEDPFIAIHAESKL
Assay: Fluorescence quenching, binding and thermodynamics with α-amylase
Conditions: T 310 K
measurement_kind: ΔG^0

Answered examples (2):
O=C(O)c1ccc(-c2c3nc(c(-c4ccc(C(=O)O)cc4)c4ccc([nH]4)c(-c4ccc(C(=O)O)cc4)c4nc(c(-c5ccc(C(=O)O)cc5)c5ccc2[nH]5)C=C4)C=C3)cc1 = -31.68 ± 0.07 kJ/mol
O=C(O)c1ccc(-c2c3nc(c(-c4ccc(C(=O)O)cc4)c4ccc([nH]4)c(-c4ccc(C(=O)O)cc4)c4nc(c(-c5ccc(C(=O)O)cc5)c5ccc2[nH]5)C=C4)C=C3)cc1.[Cu+2] = -22.33 ± 0.05 kJ/mol

Please supply ΔG^0 for each of the following items, keeping them in order.
1. Oc1ccc(-c2c3nc(c(-c4ccc(O)cc4)c4ccc([nH]4)c(-c4ccc(O)cc4)c4nc(c(-c5ccc(O)cc5)c5ccc2[nH]5)C=C4)C=C3)cc1
2. O=C(O)c1ccc(-c2c3nc(c(-c4ccc(C(=O)O)cc4)c4ccc([nH]4)c(-c4ccc(C(=O)O)cc4)c4nc(c(-c5ccc(C(=O)O)cc5)c5ccc2[nH]5)C=C4)C=C3)cc1.[Ni+2]
3. Nc1ccc(-c2c3nc(c(-c4ccc(N)cc4)c4ccc([nH]4)c(-c4ccc(N)cc4)c4nc(c(-c5ccc(N)cc5)c5ccc2[nH]5)C=C4)C=C3)cc1

-31.99 ± 0.07 kJ/mol
-28.39 ± 0.07 kJ/mol
-34.85 ± 0.10 kJ/mol
